Origin of values: patent US6610677B2

property_measured: melting point

Here are 5 compounds together with their reported answers.
[
  {
    "compound": "Cc1cc(Nc2nc(N3CCCCC3)nc3ccccc23)[nH]n1 [III-108]",
    "melting point": "294 °C"
  },
  {
    "compound": "Cc1cc(Nc2nc(N3CCN(C)CC3)nc3ccccc23)[nH]n1 [III-107]",
    "melting point": "105 to 107 °C"
  },
  {
    "compound": "Cc1cc(Nc2nc(-c3cccc(Oc4ccccc4)c3)nc3ccccc23)[nH]n1 [III-60]",
    "melting point": "231 to 232 °C"
  },
  {
    "compound": "Cc1cc(Nc2nc(-c3ccc(Cl)cc3)nc3ccccc23)[nH]n1 [III-35]",
    "melting point": "> 300 °C"
  },
  {
    "compound": "OCCCc1cc(Nc2nc(-c3ccccc3)nc3ccccc23)[nH]n1 [III-76]",
    "melting point": "164 to 165 °C"
  }
]

Your task in this section: give melting point for each listed record.
1. c1ccc(Oc2cccc(-c3nc(Nc4cc(C5CC5)n[nH]4)c4ccccc4n3)c2)cc1 [III-61]
2. Cc1cc(Nc2nc(N3CCC(O)CC3)nc3ccccc23)[nH]n1 [III-114]

193 to 195 °C
123 °C

Provide melting point values for the following items, in order.
1. Cc1cc(Nc2nc(-c3ccc(Br)cc3)nc3ccccc23)[nH]n1 [III-34]
2. Cc1n[nH]c(Nc2nc(-c3ccccc3)nc3ccccc23)c1Br [III-102]

262 to 265 °C
183 to 185 °C
